species on record: Rattus norvegicus; experiment: Antinociceptive activity in rat assessed as protection from p-phenylquinone-induced writhing; format: functional
Catalogue of ED50 values
Returns: string containing the number followed by the unit.

// below: answered compounds
COMPOUND: C[C@H]1[C@H]2Cc3ccc(O)cc3[C@]1(C)CCN2CCC(C)(C)O (racemic)
PROPERTY: ED50
RESULT: 37 mg/kg
--
COMPOUND: CC(=O)CCN1CC[C@@]2(C)c3cc(O)ccc3C[C@@H]1[C@@H]2C (racemic)
PROPERTY: ED50
RESULT: 22 mg/kg
--
COMPOUND: CC(C)=CCN1CC[C@]2(C)c3cc(O)ccc3C[C@H]1[C@H]2C [(+)-PENTAZOCINE]
PROPERTY: ED50
RESULT: 2.3 mg/kg

Here is the next item to consider.
Given the entry C/C(=C\CN1CC[C@@]2(C)c3cc(O)ccc3C[C@@H]1[C@@H]2C)CO (racemic) , report its measured ED50. 37 mg/kg
